Where these numbers come from: patent US11147802B2

- experimental-details: Metabolic stability in rat liver microsomes
- Assay type: in vitro ADME
- test-context: Sprague-Dawley (SD), pH 7.4, 1 μM compound, 0.5 mg/mL protein, 37° C., read-out: Rat liver microsomes t1/2
- Experimental: Metabolic Stability Evaluation […] Incubation of the samples: The stock solution of the respective compound was respectively diluted to 0.25 mM with an aqueous solution containing 70% acetonitrile, and used as a working solution, ready for use. […] Data analysis: The peak areas of the corresponding compound and internal standard were detected by LC-MS/MS system, and the ratio of the peak area of the compound to the internal standard was calculated.
outcome-measure: half-life at 1 μM (h)
Provide only the numeric value, understood in h.

The following molecules have reported results that may help.
{"columns": ["mol", "half-life at 1 μM, h"],
 "data": [
  ["[2H]c1cc(F)c(Br)c([2H])c1/N=C(/NO)c1nonc1NC([2H])([2H])CNS(N)(=O)=O", 1.25],
  ["[2H]c1c([2H])c(/N=C(/NO)c2nonc2NCCNS(N)(=O)=O)c([2H])c(Br)c1F", 1.32],
  ["[2H]c1cc(/N=C(/NO)c2nonc2NCCNS(N)(=O)=O)cc(Br)c1F", 1.08]
]}

For the next question, use this molecule.
Looking up [2H]c1c([2H])c(/N=C(/NO)c2nonc2NC([2H])([2H])C([2H])([2H])NS(N)(=O)=O)c([2H])c(Br)c1F , I found its half-life at 1 μM recorded as 1.13
